Exercise: for every item that follows, state its recorded (Fc)2 (homodimer) (%).
target: the molecule itself; test: HEK293-F co-expression, Protein A purification, non-reducing SDS-PAGE densitometry
One number for each entry, in %.

Here is how some proteins turned out for (Fc)2 (homodimer) (%).
protein	endpoint.label	unit.text	numeric.result
FcCH3B, A107 (E357N/D399V/F405T) (other, also called A107 CH3B chain) TCPPCPAPELLGGPSVFLFPPKPKDTLMISRTPEVTCVVVDVSHEDPEVKFNWYVDGVEVHNAKTKPREEQYNSTYRVVSVLTVLHQDWLNGKEYKCKVSNKALPAPIEKTISKAKGQPREPQVYTLPPSRDNLTKNQVSLTCLVKGFYPSDIAVEWESNGQPENNYKTTPPVLVSDGSFTLYSKLTVDKSRWQQGNVFSCSVMHEALHNHYTQKSLSLSPGK	(Fc)2 (homodimer) (%)	%	2.4
FcCH3B, B121 (K392E/D399V/F405T) (other, also called B121 CH3B chain) TCPPCPAPELLGGPSVFLFPPKPKDTLMISRTPEVTCVVVDVSHEDPEVKFNWYVDGVEVHNAKTKPREEQYNSTYRVVSVLTVLHQDWLNGKEYKCKVSNKALPAPIEKTISKAKGQPREPQVYTLPPSRDELTKNQVSLTCLVKGFYPSDIAVEWESNGQPENNYETTPPVLVSDGSFTLYSKLTVDKSRWQQGNVFSCSVMHEALHNHYTQKSLSLSPGK	(Fc)2 (homodimer) (%)	%	25.2

# context switch: different protein, same (Fc)2 (homodimer) (%)
Reported (Fc)2 (homodimer) (%) for FcCH3B, B135 (K392S/K409L/D399V/F405T) (other, also called B135 CH3B chain) TCPPCPAPELLGGPSVFLFPPKPKDTLMISRTPEVTCVVVDVSHEDPEVKFNWYVDGVEVHNAKTKPREEQYNSTYRVVSVLTVLHQDWLNGKEYKCKVSNKALPAPIEKTISKAKGQPREPQVYTLPPSRDELTKNQVSLTCLVKGFYPSDIAVEWESNGQPENNYSTTPPVLVSDGSFTLYSLLTVDKSRWQQGNVFSCSVMHEALHNHYTQKSLSLSPGK : what is it?
27.9
